system: 171881-019-R-J1-PDC tumor spheroid viability; test: Anticancer human tumor 171881-019-R-J1-PDC patient-derived invasive breast carcinoma cell line growth inhibition [PI3K]; conditions: second compound 0.01 µM; first compound 0.0316 µM; stronger effect = lower value; spheroids with HUVEC and MSC
Reported values of viability, T/C for individual entries
Your answer should be a plain number; it is taken to be in %.

[
  {
    "MOLECULE": "Cn1nccc1Nc1nccc(-c2ccn(C(CO)c3ccc(Cl)c(F)c3)c(=O)c2)n1 (stereo not given) + CC(Nc1ccc2c(c1)OCCn1cc(N3C(=O)OCC3C(F)F)nc1-2)C(N)=O",
    "SCALE_UNIT": "%",
    "READING": 69.6
  },
  {
    "MOLECULE": "CCN1CCN(Cc2ccc(Nc3ncc(F)c(-c4cc(F)c5nc(C)n(C(C)C)c5c4)n3)nc2)CC1 + COc1c(OCCCN2CCOCC2)ccc2c3n(c(=NC(=O)c4cnc(N)nc4)nc12)CCN3",
    "SCALE_UNIT": "%",
    "READING": 53.6
  },
  {
    "MOLECULE": "CC1(C)CCC(CN2CCN(c3ccc(C(=O)NS(=O)(=O)c4ccc(NCC5CCOCC5)c([N+](=O)[O-])c4)c(Oc4cnc5[nH]ccc5c4)c3)CC2)=C(c2ccc(Cl)cc2)C1 + CC(Nc1ccc2c(c1)OCCn1cc(N3C(=O)OCC3C(F)F)nc1-2)C(N)=O",
    "SCALE_UNIT": "%",
    "READING": 79.2
  },
  {
    "MOLECULE": "CC(C)NCC(C(=O)N1CCN(c2ncnc3c2C(C)CC3O)CC1)c1ccc(Cl)cc1 (stereo not given) + CC(Nc1ccc2c(c1)OCCn1cc(N3C(=O)OCC3C(F)F)nc1-2)C(N)=O",
    "SCALE_UNIT": "%",
    "READING": 64.8
  }
]

Alright, here's another molecule for you.
[Q] Supply measured viability, T/C of CC(Cn1ccc(-c2ccc(C#N)c(Cl)c2)n1)NC(=O)c1cc(C(C)O)[nH]n1 (stereo not given) + CC(Nc1ccc2c(c1)OCCn1cc(N3C(=O)OCC3C(F)F)nc1-2)C(N)=O in your reply.
[A] 75.1

----------
Test system: 171881-019-R-J1-PDC tumor spheroid viability
Test: Anticancer human tumor 171881-019-R-J1-PDC cell line growth inhibition [PI3K];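 note: spheroids exposed to compound for 7 days before viability read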;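 for viability, T/C: 100% = DMSO vehicle-treated spheroids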
Conditions: second compound 0.1 µM; first compound 10 µM; stronger effect = lower value; spheroids with HUVEC and MSC
From the text: Combinatorial screen of targeted agents with the PI3K inhibitors inavolisib, alpelisib, duvelisib, and copanlisib in multi-cell type tumor spheroids A high-throughput screen of multi-cell type tumor spheroids was designed to identify active combinations of targeted small molecules and PI3K pathway inhibitors. […] Compounds. […] If the clinical Cmax for an agent had not been determined, the highest concentration tested was 10 microM. […]
PROPERTY: viability, T/C (%)
Kindly provide the numeric value in % only, without the unit symbol.

These solved cases illustrate the format of a correct answer.
[
  {
    "COMPOUND": "CC(C)NCC(C(=O)N1CCN(c2ncnc3c2C(C)CC3O)CC1)c1ccc(Cl)cc1 (stereo unspecified) + CC(Nc1ncnc2nc[nH]c12)c1cc2cccc(Cl)c2c(=O)n1-c1ccccc1",
    "viability, T/C (%)": 10.1
  },
  {
    "COMPOUND": "Cn1nccc1Nc1nccc(-c2ccn(C(CO)c3ccc(Cl)c(F)c3)c(=O)c2)n1 (stereo unspecified) + COc1c(OCCCN2CCOCC2)ccc2c3n(c(=NC(=O)c4cnc(N)nc4)nc12)CCN3",
    "viability, T/C (%)": 0.87
  },
  {
    "COMPOUND": "C#Cc1c(F)ccc2cc(O)cc(-c3ncc4c(N5CC6CCC(C5)N6)nc(OCC56CCCN5CC(F)C6)nc4c3F)c12 (stereo unspecified) + CC(Nc1ncnc2nc[nH]c12)c1cc2cccc(Cl)c2c(=O)n1-c1ccccc1",
    "viability, T/C (%)": 24.3
  },
  {
    "COMPOUND": "CNC(=O)c1ccc(N2C(=S)N(c3ccc(C#N)c(C(F)(F)F)c3)C(=O)C2(C)C)cc1F + Cc1nc(NC(=O)N2CCCC2C(N)=O)sc1-c1ccnc(C(C)(C)C(F)(F)F)c1",
    "viability, T/C (%)": 66.1
  },
  {
    "COMPOUND": "Cn1nccc1Nc1nccc(-c2ccn(C(CO)c3ccc(Cl)c(F)c3)c(=O)c2)n1 (stereo unspecified) + CC(Nc1ncnc2nc[nH]c12)c1cc2cccc(Cl)c2c(=O)n1-c1ccccc1",
    "viability, T/C (%)": 19.9
  }
]

Attention now shifts to the item below.
[Q] Entry CC(Cn1ccc(-c2ccc(C#N)c(Cl)c2)n1)NC(=O)c1cc(C(C)O)[nH]n1 (stereo unspecified) + CC(Nc1ccc2c(c1)OCCn1cc(N3C(=O)OCC3C(F)F)nc1-2)C(N)=O needs its viability, T/C filled in; supply it.
[A] 27.3

----------
system: 171881-019-R-J1-PDC tumor spheroid viability; assay: Anticancer human tumor 171881-019-R-J1-PDC cell line growth inhibition [PI3K]; conditions: curve of first compound; second compound 1 µM; spheroids with HUVEC and MSC;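 note: spheroids exposed to compound for 7 days before viability read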
IC50 overview

Below are worked cases with known answers.
[
  {
    "COMPOUND": "CNC(=O)c1ccc(N2C(=S)N(c3ccc(C#N)c(C(F)(F)F)c3)C(=O)C2(C)C)cc1F + CC(Nc1ncnc2nc[nH]c12)c1cc2cccc(Cl)c2c(=O)n1-c1ccccc1",
    "IC50": "> 10000 nM"
  },
  {
    "COMPOUND": "CC(C)n1nc(-c2ccc3oc(N)nc3c2)c2c(N)ncnc21 + CC(Nc1ncnc2nc[nH]c12)c1cc2cccc(Cl)c2c(=O)n1-c1ccccc1",
    "IC50": "8.02 nM"
  },
  {
    "COMPOUND": "CC(Cn1ccc(-c2ccc(C#N)c(Cl)c2)n1)NC(=O)c1cc(C(C)O)[nH]n1 (configuration not stated) + COc1c(OCCCN2CCOCC2)ccc2c3n(c(=NC(=O)c4cnc(N)nc4)nc12)CCN3",
    "IC50": "< 31.6 nM"
  }
]

[Q] Let me know recorded IC50 for Cn1nccc1Nc1nccc(-c2ccn(C(CO)c3ccc(Cl)c(F)c3)c(=O)c2)n1 (configuration not stated) + CC(Nc1ncnc2nc[nH]c12)c1cc2cccc(Cl)c2c(=O)n1-c1ccccc1 , thanks.
[A] 345 nM

[Q] Give a short answer stating reported IC50 for C#Cc1c(F)ccc2cc(O)cc(-c3ncc4c(N5CC6CCC(C5)N6)nc(OCC56CCCN5CC(F)C6)nc4c3F)c12 (configuration not stated) + Cc1nc(NC(=O)N2CCCC2C(N)=O)sc1-c1ccnc(C(C)(C)C(F)(F)F)c1 .
[A] < 31.6 nM

[Q] Answer with reported IC50 of Cn1ncc(Cl)c1-c1cc(C(=O)NC(CN)Cc2cccc(F)c2)sc1Cl (configuration not stated) + CC(Nc1ccc2c(c1)OCCn1cc(N3C(=O)OCC3C(F)F)nc1-2)C(N)=O
[A] < 31.6 nM

[Q] Specify measured IC50 for CC(C)NCC(C(=O)N1CCN(c2ncnc3c2C(C)CC3O)CC1)c1ccc(Cl)cc1 (configuration not stated) + Cc1nc(NC(=O)N2CCCC2C(N)=O)sc1-c1ccnc(C(C)(C)C(F)(F)F)c1 .
[A] < 31.6 nM

----------
system: 171881-019-R-J1-PDC tumor spheroid viability; experiment: Anticancer human tumor 171881-019-R-J1-PDC cell line growth inhibition [PI3K]; conditions: curve of first compound; second compound 1 µM; spheroids with HUVEC and MSC;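 note: spheroids exposed to compound for 7 days before viability read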
PROPERTY: IC50

[
  {
    "COMPOUND": "Cn1ncc(Cl)c1-c1cc(C(=O)NC(CN)Cc2cccc(F)c2)sc1Cl (stereo not given) + COc1c(OCCCN2CCOCC2)ccc2c3n(c(=NC(=O)c4cnc(N)nc4)nc12)CCN3",
    "READING": "< 31.6 nM"
  }
]

[Q] Please list IC50 recorded for the compound Cn1ncnc1[C@H]1c2n[nH]c(=O)c3cc(F)cc(c23)N[C@@H]1c1ccc(F)cc1 + COc1c(OCCCN2CCOCC2)ccc2c3n(c(=NC(=O)c4cnc(N)nc4)nc12)CCN3
[A] < 0.316 nM

[Q] Write down IC50 measured for item CC(C)n1nc(-c2ccc3oc(N)nc3c2)c2c(N)ncnc21 + CC(Nc1ccc2c(c1)OCCn1cc(N3C(=O)OCC3C(F)F)nc1-2)C(N)=O
[A] < 0.316 nM

[Q] Return reported IC50. Input compound: Cn1nccc1Nc1nccc(-c2ccn(C(CO)c3ccc(Cl)c(F)c3)c(=O)c2)n1 (stereo not given) + CC(Nc1ccc2c(c1)OCCn1cc(N3C(=O)OCC3C(F)F)nc1-2)C(N)=O
[A] < 31.6 nM

[Q] Provide measured IC50 value, entry: CC(C)NCC(C(=O)N1CCN(c2ncnc3c2C(C)CC3O)CC1)c1ccc(Cl)cc1 (stereo not given) + COc1c(OCCCN2CCOCC2)ccc2c3n(c(=NC(=O)c4cnc(N)nc4)nc12)CCN3
[A] < 31.6 nM
